// note: IC50 values for UniProt P23743 were reported in different studies
1 (yes) if IC50 is below 10 µM. 0 (no) if not; exact matches included in 0 (no).

CCOc1cc(F)ccc1C(C)N1C[C@H](CC)N(c2cc(=O)n(C)c3cn(CC#N)nc23)C[C@H]1CC (stereo partly shown)    1 (yes)

Hello, I'm reviewing records and need to know if IC50 of CC[C@H]1CN(C(C)c2ccc(OCC3CCOC3)cc2)[C@H](CC)CN1c1cc(=O)n(C)c2cn(CC#N)nc12 (stereo partly shown) is below 10 µM. Could you check?
1 (yes)

Hello, I'm reviewing records and need to know if IC50 of N[C@H]1CS(=O)(=O)c2ccc(-c3nnc(C4(CO)CCCO4)o3)cc2N(Cc2ccc(-c3noc(C(F)(F)F)n3)cc2)C1=O (stereo partly shown) is below 10 µM. Could you check?
0 (no)

Hello, I'm reviewing records and need to know if IC50 of CC(c1ccc2c(c1)OCO2)N1C[C@H](C)N(c2cc(=O)n(C)n3cc(CC#N)nc23)C[C@H]1C (stereo partly shown) is below 10 µM. Could you check?
1 (yes)

Hello, I'm reviewing records and need to know if IC50 of N[C@H]1CS(=O)(=O)c2cc(F)c(-c3noc(N4CCCC4)n3)cc2N(Cc2ccc(-c3noc(C(F)(F)F)n3)nc2)C1=O is below 10 µM. Could you check?
0 (no)

###

// note: IC50 values for DGKα (Homo sapiens, UniProt P23743) were reported in different studies

Use the examples below as a reference point.
N[C@H]1CS(=O)(=O)c2ccc(-c3nnc(C(N)(C4CC4)C(F)(F)F)o3)cc2N(Cc2ccc(-c3noc(C4CC4)n3)cc2)C1=O (stereo partly drawn)    > 60 µM
CC[C@H]1CN(C(C)c2ccnn2CC(F)F)[C@H](CC)CN1c1cc(=O)n(C)c2c[nH]nc12 (stereo partly drawn)    > 10 µM
CC[C@H]1CN(C(C)c2ccc(F)cc2Br)[C@H](CC)CN1c1cc(=O)n(C)c2cn(CC#N)nc12 (stereo partly drawn)    > 10 µM
C[C@](N)(c1nnc(-c2ccc3c(c2)N(Cc2ccc(-c4noc(C(F)(F)F)n4)cc2)C(=O)[C@@H](N)CS3(=O)=O)o1)C(F)(F)F    43.4 µM
[2H]C([2H])([2H])n1c(CC#N)nc2c(N3C[C@@H](C)N(C(C)c4ccc(F)cc4C(F)(F)F)C[C@@H]3C)nc(=O)n(C([2H])([2H])[2H])c21 (stereo partly drawn)    104 µM

Shifting focus to the compound that follows.
Return the recorded IC50 value; entry: CC(c1ccc2nccnc2c1)N1C[C@H](C)N(c2cc(=O)n(C)c3sc(CC#N)nc23)C[C@H]1C (mixture of isomers)
4.08 µM

###

// note: pIC50 values for DGKα (Homo sapiens, UniProt P23743) were reported in different studies
pIC50: −log10 of the molar value.

CC[C@H]1CN(C(C)c2ccc(CN3CCC(F)(F)CC3)cc2)[C@H](CC)CN1c1cc(=O)n(C)c2cn(CC#N)nc12 (stereo partly drawn)    6.97
CC[C@H]1CN(C(C)c2ccc3c(n2)OCCN3C)[C@H](CC)CN1c1cc(=O)n(C)c2cn(CC#N)nc12 (stereo partly drawn)    < 5.00
CCn1c(CC#N)nc2c(N3C[C@@H](C)N(C(C)c4ccc5c(c4)C(=O)N(C)CC5)C[C@@H]3C)nc(=O)n(C)c21 (stereo partly drawn)    < 3.82
CC[C@@H]1CN(c2cc(=O)n(C)n3cc(CC#N)nc23)[C@@H](C)CN1C(C)c1ccc2cc(C)sc2n1 (stereo partly drawn)    6.95
CC(c1ccc2nccnc2c1)N1C[C@H](CO)N(c2cc(=O)n(C)c3cn(CC#N)nc23)C[C@H]1C (stereo partly drawn)    < 5.00

Shifting focus to the compound that follows.
Find the measured pIC50 of CCn1c(CC#N)nc2c(N3C[C@@H](C)N(C(C)c4cc(F)c5c(n4)OC(C)(C)CO5)C[C@@H]3C)nc(=O)n(C)c21 (mixture of isomers) with DGKα (Homo sapiens, UniProt P23743) as test system.
< 3.82

###

// note: pIC50 values for DGKα (Homo sapiens) were reported in different studies
Worth noting: pIC50 values are minus log10 of concentrations stated in mol/L.

Use the examples below as a reference point.
Cc1cc2cc(C(C)N3C[C@H](C)N(c4cc(=O)n(C)c5cn(CC#N)nc45)C[C@H]3C)ccc2cn1 (mixture of isomers)    5.44
CCn1c(CC#N)nc2c(N3C[C@@H](C)N(C(C)c4cc(C)c5c(c4)OC(C)(C)O5)C[C@@H]3C)nc(=O)n(C)c21 (stereo partly shown)    4.14
CC(c1ccc2nccnc2c1)N1C[C@H](C)N(c2cc(=O)n(C)c3cn(C)nc23)C[C@H]1C (stereo partly shown)    5.49

Return the recorded pIC50 value; entry: CC[C@H]1CN(C(C)c2ccc3nccnc3c2)[C@H](C)CN1c1cc(=O)n(C)c2cn(CC#N)nc12 (stereo partly shown)
4.57

Return the recorded pIC50 value; entry: CC[C@@H]1CN(c2cc(=O)n(C)c3cn(CC#N)nc23)[C@@H](CO)CN1C(C)c1ccc2nccnc2c1 (stereo partly shown)
4.62

Return the recorded pIC50 value; entry: Cc1cnc2ccc([C@H](C)N3C[C@H](C)N(c4c(C#N)c(=O)n(C)c5cn(CC#N)nc45)C[C@H]3C)cc2n1
5.19

Return the recorded pIC50 value; entry: CC[C@H]1CN(C(C)c2cc3ccccc3cn2)[C@H](CC)CN1c1cc(=O)n(C)c2cn(CC#N)nc12 (stereo partly shown)
8.14

Return the recorded pIC50 value; entry: N[C@H]1CS(=O)(=O)c2ccc(-c3nnc(N4CCOC(F)(F)C4)o3)cc2N(Cc2ccc(-c3nnc(C(F)(F)F)o3)cc2)C1=O
4.93

###

// note: IC50 values for DGKα (Homo sapiens) were reported in different studies

Use the examples below as a reference point.
C=C(C)n1cc2c(n1)c(N1C[C@@H](CC)N(C(C)c3ccc4nccnc4c3)C[C@@H]1CC)cc(=O)n2C (stereo partly shown)    0.054 µM
COCc1cc(C(C)N2C[C@H](C)N(c3cc(=O)n(C)c4cn(CC#N)nc34)C[C@H]2C)ccc1F (stereo partly shown)    5.1 µM
CCn1c(CC#N)nc2c(N3C[C@@H](C)N(C(C)c4cccc(C)c4)C[C@@H]3C)nc(=O)n(C)c21 (stereo partly shown)    79.3 µM

Return the recorded IC50 value; entry: CC(C)(C#N)c1nnc(-c2ccc3c(c2)N(Cc2ccc(-n4cc(C(F)(F)F)nn4)cc2)C(=O)[C@@H](N)CS3(=O)=O)o1
18 µM

Return the recorded IC50 value; entry: CC[C@H]1CN(C(C)c2ccc(F)cn2)[C@H](CC)CN1c1cc(=O)n(C)c2cn(CC#N)nc12 (stereo partly shown)
0.0038 µM

Return the recorded IC50 value; entry: N[C@H]1CS(=O)(=O)c2ccc(-c3nnc(C4(C5CC5)CCCO4)o3)cc2N(Cc2ccc(-c3nnc(C(F)(F)F)o3)cc2)C1=O (stereo partly shown)
4.68 µM

###

// note: IC50 values for DGKα (Homo sapiens) were reported in different studies
Report only the number, with the unit µM understood.

Use the examples below as a reference point.
CC[C@H]1CN(C(C)c2ccc3cccnc3n2)[C@H](CC)CN1c1cc(=O)n(C)c2cn(CC#N)nc12 (stereo partly shown)    0.083
CC(C)(C#N)Cc1nnc(-c2ccc3c(c2)N(Cc2ccc(-c4ccc(OC(F)(F)F)cn4)cc2)C(=O)[C@@H](N)CS3(=O)=O)o1    9.3

Find the measured IC50 of CC(c1ccc2nccnc2c1)N1C[C@H](C)N(c2cc(=O)n(C)c3cn(C(C)C#N)nc23)C[C@H]1C (stereo partly shown) with DGKα (Homo sapiens) as test system.
31

Find the measured IC50 of C=C(C)n1cc2c(n1)c(N1C[C@@H](CC)N(Cc3ccc(OC(F)(F)F)cc3)C[C@@H]1CC)cc(=O)n2C with DGKα (Homo sapiens) as test system.
0.0043

Find the measured IC50 of CC(c1ccc2c(c1)OC(C)(C)CO2)N1C[C@H](C)N(c2c(F)c(=O)n(C)n3cc(CC#N)nc23)C[C@H]1C (mixture of isomers) with DGKα (Homo sapiens) as test system.
3.09

###

// note: IC50 values for DGKα (Homo sapiens, UniProt P23743) were reported in different studies
Report only the number, with the unit µM understood.

CC(c1ccc2c(c1F)OC(C)(C)CO2)N1C[C@H](C)N(c2nc(=O)n(C)c3c2nc(CC#N)n3C)C[C@H]1C (stereo partly shown)    9.69

Find the measured IC50 of CC[C@@H]1CN(c2cc(=O)n(C)n3cc(CC#N)nc23)[C@@H](C)CN1C(C)c1ccc2nc(C)sc2c1 (stereo partly shown) with DGKα (Homo sapiens, UniProt P23743) as test system.
0.789

Find the measured IC50 of CC(C)(C)c1nnc(-c2ccc3c(c2)N(Cc2ccc(-n4ccc(C(F)(F)F)n4)cc2)C(=O)[C@@H](N)CS3(=O)=O)o1 with DGKα (Homo sapiens, UniProt P23743) as test system.
2.95

Find the measured IC50 of Cc1cnc2ccc(C(C)N3C[C@H](C)N(c4nc(=O)n(C)c5c4nc(CC#N)n5C)C[C@H]3C)cc2n1 (stereo partly shown) with DGKα (Homo sapiens, UniProt P23743) as test system.
123

Find the measured IC50 of CC(O)(c1nnc(-c2ccc3c(c2)N(Cc2ccc(-c4noc(C(F)(F)F)n4)cc2)C(=O)[C@@H](N)CS3(=O)=O)o1)C(F)(F)F (stereo partly shown) with DGKα (Homo sapiens, UniProt P23743) as test system.
0.0447

Find the measured IC50 of CC(C)(C)c1nnc(-c2ccc3c(c2)N(Cc2ccc(-n4cnc(C(F)(F)F)n4)cc2)C(=O)[C@@H](N)CS3(=O)=O)o1 with DGKα (Homo sapiens, UniProt P23743) as test system.
4.24

Find the measured IC50 of CC(c1ccc2nccnc2c1)N1C[C@H](C)N(c2cc(=O)n(C)c3cn(C4CCC4)nc23)C[C@H]1C (stereo partly shown) with DGKα (Homo sapiens, UniProt P23743) as test system.
52

Find the measured IC50 of CC(c1ccc2c(c1)OC(C)(C)CO2)N1C[C@H](C)N(c2nc(=O)n(C)c3c2nc(CC#N)n3CC(F)F)C[C@H]1C (stereo partly shown) with DGKα (Homo sapiens, UniProt P23743) as test system.
21.9

Find the measured IC50 of CC[C@H]1CN(C(C)c2ccc(C(F)(F)F)cc2F)[C@H](CC)CN1c1cc(=O)n(C)c2cn(CC#N)nc12 (stereo partly shown) with DGKα (Homo sapiens, UniProt P23743) as test system.
0.63

Find the measured IC50 of CC[C@H]1CN(C(C)c2cnc3ccccc3c2)[C@H](CC)CN1c1cc(=O)n(C)c2cn(CC#N)nc12 (stereo partly shown) with DGKα (Homo sapiens, UniProt P23743) as test system.
0.56
